- method_summary: Aqueous solubility of the compound at pH 7.4 by UV spectrophotometry
- Type: physicochemical
- setup_conditions: buffer
test_readout: solubility
Record the result as a number with its unit.

Q) // query solubility value for entry CCOC(=O)c1cc2cc(-c3cc(C(=O)NCc4ccc(C(=O)O)cc4)nn3C)ccc2[nH]1 [BI 4394]
A) 0.06 mg/mL

---

- method_summary: Cmax in Sprague-Dawley rat at 1 mg/kg, iv and 10 mg/kg, po
- Type: ADME, organism-based
- setup_conditions: in vivo
test_readout: Cmax (nM)
The response must be a number in nM with no trailing unit.

Q) // query Cmax value for entry CCOC(=O)c1cc2cc(-c3cc(C(=O)NCc4ccc(C(=O)O)cc4)nn3C)ccc2[nH]1 [BI 4394]
A) 1660

---

Please provide measured pIC50 for the entries that follow.
- target_desc: Collagenase 3 (Homo sapiens, UniProt P45452)
Recall that pIC50 is obtained by taking minus log10 of the concentration measured in molar.

Q) // query pIC50 value for entry "CC(=O)Nc1ccc2[nH]c(C3=NCCO3)cc2c1"
A) 3.66

Q) // query pIC50 value for entry "CCOC(=O)c1cc2cc(-c3cc(C(=O)OC)nn3C)ccc2[nH]1"
A) 5.62

Q) // query pIC50 value for entry "CCOC(=O)c1cc2cc(-c3cc(C(=O)NCc4ccncc4)nn3C)ccc2[nH]1"
A) 7.05

Q) // query pIC50 value for entry "CCOC(=O)c1cc2cc(-c3cc(C(=O)NCc4ccncc4)ncc3C)ccc2[nH]1"
A) 6.82

Q) // query pIC50 value for entry "CCOC(=O)c1cc2cc(NS(C)(=O)=O)ccc2[nH]1"
A) 4.01

Q) // query pIC50 value for entry "CCOC(=O)c1cc2cc(-c3ccncc3C)ccc2[nH]1"
A) 5.02

Q) // query pIC50 value for entry "CCOC(=O)c1cc2cc(NC(C)=O)ccc2[nH]1"
A) 4.51

Q) // query pIC50 value for entry "CCOC(=O)c1cc2cc(-c3cc(C(=O)NCc4ccc(C(=O)O)cc4)nn3C)ccc2[nH]1"
A) 9.00

---

// IC50 collected for Collagenase 3 (Homo sapiens)

Q) Can you look up IC50 on Collagenase 3 (Homo sapiens) for "CCNC(=O)c1cc2cc(C(N)=O)ccc2[nH]1" ?
A) > 500 µM

Q) Can you look up IC50 on Collagenase 3 (Homo sapiens) for "CCOC(=O)c1cc2cc(-c3ccccn3)ccc2[nH]1" ?
A) > 500 µM

Q) Can you look up IC50 on Collagenase 3 (Homo sapiens) for "CCCC(=O)c1cc2cc(C(N)=O)ccc2[nH]1" ?
A) > 500 µM

Q) Can you look up IC50 on Collagenase 3 (Homo sapiens) for "CCOC(=O)c1cc2cc(-c3ccccc3)ccc2[nH]1" ?
A) > 500 µM

Q) Can you look up IC50 on Collagenase 3 (Homo sapiens) for "Cn1nc(C(=O)NCc2ccc(C(=O)O)cc2)cc1-c1ccc2[nH]ccc2c1" ?
A) > 26 µM
